Where these numbers come from: patent US11504441B2

# Assay Procedure: in vivo
# Set-up: species or system mice
# Particulars: male, NODSCID 1L2RγKO, mouse, iv, total radioactivity, Brain uptake
# tissue uptake at 4 h per entry
Endpoint Name: tissue uptake at 4 h (%ID/g)

molecule="O=C(O)CCC[C@H](NC(=O)N[C@@H](CCCCNC(=O)[C@H](Cc1c2ccccc2cc2ccccc12)NC(=O)[C@H]1CC[C@H](CNC(=O)CN2CCN(CC(=O)O)CCN(CC(=O)O)CCN(CC(=O)O)CC2)CC1)C(=O)O)C(=O)O [177Lu-HTK03149, metal not drawn]" data_value=0.01
molecule="COc1ccc(CCCC(=O)NCC(=O)N[C@@H](CCCCNC(=O)CN2CCN(CC(=O)O)CCN(CC(=O)O)CCN(CC(=O)O)CC2)C(=O)NC[C@H]2CC[C@H](C(=O)N[C@@H](Cc3c4ccccc4cc4ccccc34)C(=O)NCCCC[C@H](NC(=O)N[C@@H](COCC(=O)O)C(=O)O)C(=O)O)CC2)cc1 [177Lu-HTK04028, metal not drawn]" data_value=0.19
molecule="COc1ccc(CCCC(=O)NCC(=O)N[C@@H](CCCCNC(=O)CN2CCN(CC(=O)O)CCN(CC(=O)O)CCN(CC(=O)O)CC2)C(=O)NC[C@H]2CC[C@H](C(=O)N[C@@H](Cc3c4ccccc4cc4ccccc34)C(=O)NCCCC[C@H](NC(=O)N[C@@H](CSCC(=O)O)C(=O)O)C(=O)O)CC2)cc1 [177Lu-HTK04048, metal not drawn]" data_value=0.18
